Assay read-out pIC50 on Alpha-2A adrenergic receptor (Homo sapiens, UniProt P08913); records merged from the literature.
Molecular target: Alpha-2A adrenergic receptor (Homo sapiens, UniProt P08913)
Sequence (P08913 whole entry): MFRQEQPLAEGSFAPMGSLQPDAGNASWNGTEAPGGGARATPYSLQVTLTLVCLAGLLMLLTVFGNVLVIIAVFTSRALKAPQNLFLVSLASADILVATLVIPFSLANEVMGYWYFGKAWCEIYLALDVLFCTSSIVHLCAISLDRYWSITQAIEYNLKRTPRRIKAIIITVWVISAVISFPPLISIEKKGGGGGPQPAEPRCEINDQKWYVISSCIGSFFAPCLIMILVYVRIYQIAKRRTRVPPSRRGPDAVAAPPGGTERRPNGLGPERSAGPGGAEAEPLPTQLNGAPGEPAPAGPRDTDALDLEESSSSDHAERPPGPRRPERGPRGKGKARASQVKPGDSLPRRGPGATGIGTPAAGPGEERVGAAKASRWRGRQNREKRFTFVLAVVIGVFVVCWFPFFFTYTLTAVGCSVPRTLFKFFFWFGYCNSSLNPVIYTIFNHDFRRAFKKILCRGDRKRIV
pIC50: −log10 of the molar value.
Note to self: values exactly at 5 are Yes. So pIC50 at or above 5 is Yes, below is No.

compound=N=C(Nc1ccc2c(c1)CCN2C1CCNCC1)c1cccs1 answer_label=No
compound="CC1=C(C2CCCN(C)C2)c2cc(NS(=O)(=O)c3c(Cl)nc4sccn34)ccc2C1 (stereo not drawn)" answer_label=Yes

Given `c1cnc2c(c1)CN[C@@H](CN(CCCCNC1COC1)[C@H]1CCCc3cccnc31)C2` , state whether its pIC50 is at least 5. No

In plain terms: is recorded pIC50 at least 5 for `Cc1cnc(N[C@H]2CC[C@@H](NC(=O)c3ccc(Cl)cc3)CC2)nc1N(C)C` ? Yes

Check if pIC50 >= 5 (inclusive). Item: `CN(CCCCN(C[C@H]1Cc2ncccc2CN1)[C@H]1CCCc2cccnc21)C1CCOCC1` No

Identify whether the reported pIC50 of the following compound is 5 or greater: `NCCCCN(Cc1nc2ccccc2[nH]1)[C@H]1CCCc2cccnc21` No

Please tell me: is the compound `Cc1cnc(N[C@H]2CC[C@@H](NC(=O)c3ccc(F)cc3)CC2)nc1N(C)C` at or over 5 in terms of pIC50? Yes

* * *

We begin with pIC50 values for Alpha-2A adrenergic receptor (Homo sapiens, UniProt P08913), as collected from the published literature.
FYI, pIC50 means -log10 of a concentration in mol per litre.

Before answering, review these 2 worked examples.
compound=c1cnc2c(c1)CN[C@@H](CN(CCCCN1CCOCC1)[C@H]1CCCc3cccnc31)C2 data_value=6.21
compound="CN(C)CC1CC2c3ccccc3Cc3ccccc3N2O1 (stereo in doubt; 2a)" data_value=6.43

Field: next compound
// pIC50 lookup, compound = `O=C(Nc1ccccc1-c1cn2c(CN3CCNCC3)csc2n1)c1cnc2ccccc2n1` , result: 5.55

* * *

For reference, the following IC50 results for Alpha-2A adrenergic receptor (Homo sapiens, UniProt P08913) were taken from various sources.
Dear colleague, please return just the value in µM, with no unit written.

The recorded IC50 for entry `Cc1ccc(C(=O)N[C@H]2CC[C@@H](Nc3ncc(C)c(N(C)C)n3)CC2)cc1` equals 1.77

# compound `Cc1cc(N(C)C)nc(N[C@H]2CC[C@@H](NC(=O)c3ccc(Cl)c(Cl)c3)CC2)n1` ; its IC50 = 0.13

Looking up `NCCCCN(C[C@H]1Cc2ncccc2CN1)[C@H]1CCCc2cccnc21` , I found its IC50 recorded as 11

Noted for `Cc1cnc(N[C@H]2CC[C@@H](CNC(=O)c3cc(C(F)(F)F)cc(C(F)(F)F)c3)CC2)nc1N(C)C` : its IC50 reads 0.31

Summary for this compound, `CN(C)CCCOc1ccc(CCNC(=O)c2cc(Br)c[nH]2)cc1Br` : IC50 is 0.185

Just so you know, measured IC50 for `CC1=C(CCN(C)C)c2cc(S(=O)(=O)Nc3cccc4ccccc34)ccc2C1` came out at 1.1

The reported value for `COCCCOc1cc(C(=O)N(C[C@@H]2CNC[C@H]2OC(=O)NCc2ccccc2)C(C)C)ccc1OC` in terms of IC50 is 1
